tested on: NCI-H23; test: NCI tumour cell line growth inhibition, 48 h
The source made the active and inactive calls. Rule as the data show it: active = GI50 up to about 1.1 µM and inactive = higher.
Outcomes: 1 (active), 0 (inactive)

molecule	system_name	class_assignment
NC1CC(n2ccc(=O)[nH]c2=O)OC1C(O)CO (centres undefined)	NCI-H23	0
COC12CCC(=O)C=C1c1ccccc1N2C(C)=O (centres undefined)	NCI-H23	0
c1cnc2c(c1)-n1cccc1C1(CCSC1)NN2 (centres undefined)	NCI-H23	0
Cc1cccc2c1c(=O)c1c(O)cc(O)cc1n2C	NCI-H23	0
Cn1c(=O)c2nc(CSCc3ccccc3)[nH]c2n(C)c1=O	NCI-H23	0
C[C@]12CCC(=O)C=C1CC[C@@H]1[C@@H]2CC[C@]2(C)C(=O)[C@H](n3ccnc3)C[C@@H]12	NCI-H23	0
COC(=O)C(=O)C1CCCCC(C2=NC3NN=C(N)N3C2=O)C1=O (centres undefined)	NCI-H23	0
COc1cc(/C=[N+](\[O-])c2ccccc2Cl)ccc1OC(=S)S	NCI-H23	0
Cc1cnc2c(c1)C(=O)C1=C(C2=O)C2OC(=O)CC2OC1(C)C (centres undefined)	NCI-H23	1
O=S(O)CCCCCSSc1ccccc1	NCI-H23	0
CCCCc1c2c(nc3c1CCc1cc4c(nc1-3)-c1nc3c(c(CCCC)c1CC4)CCC/C3=C\c1ccccc1)/C(=C/c1ccccc1)CCC2	NCI-H23	0
CC(=O)OC1CCC2(C)C(CCC3C4CC=C(C5(C)OCCO5)C4(C)CCC32)C1 (centres undefined)	NCI-H23	0
COC(=O)c1cc(O)c(O)c(O)c1-c1c(O)c(O)c(O)c(SC[C@H](NC(=O)OCc2ccccc2)C(=O)OCc2ccccc2)c1C(=O)OC	NCI-H23	0
O=C(NC(Cc1ccc(I)cc1)C(=O)O)c1cccc(Br)c1 (centres undefined)	NCI-H23	0
